target system: 5-HT2B receptor (Homo sapiens)
Construct: host or cells: HEK293
Sequence (P41595 whole entry): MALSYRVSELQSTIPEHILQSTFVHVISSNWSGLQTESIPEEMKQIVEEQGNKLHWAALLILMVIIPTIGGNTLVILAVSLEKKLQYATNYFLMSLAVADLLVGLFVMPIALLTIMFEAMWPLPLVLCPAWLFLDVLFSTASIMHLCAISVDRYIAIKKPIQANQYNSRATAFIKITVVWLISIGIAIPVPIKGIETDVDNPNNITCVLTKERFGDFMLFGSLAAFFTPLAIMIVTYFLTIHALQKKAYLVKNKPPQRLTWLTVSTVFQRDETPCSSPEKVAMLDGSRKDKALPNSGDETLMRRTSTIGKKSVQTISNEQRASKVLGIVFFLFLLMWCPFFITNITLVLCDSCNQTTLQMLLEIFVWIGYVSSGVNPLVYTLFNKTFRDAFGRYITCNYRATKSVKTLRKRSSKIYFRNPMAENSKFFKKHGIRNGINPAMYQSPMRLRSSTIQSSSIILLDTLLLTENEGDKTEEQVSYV
experimental details: cell-based
experimental setup: Ca^2+ flux, agonist; read-out: 5-HT2B EC50
measurement name: EC50 (µM)
Answers are plain numbers, in µM.

# batch size: 4; output EC50 per entry
1. CCCN1C[C@H](C(=O)N(CC)CC)C=C2c3cccc4[nH]c(Br)c(c34)C[C@H]21
2. CCC[C@@H](C)NC(=O)[C@@H]1C=C2c3cccc4[nH]cc(c34)C[C@H]2N(CCC)C1
3. CCCN1C[C@H](C(=O)NC(CC)CC)C=C2c3cccc4[nH]cc(c34)C[C@H]21
4. C=CCN1C[C@H](C(=O)N[C@H](C)CC)C=C2c3cccc4[nH]cc(c34)C[C@H]21

1: 0.4; 2: 0.364; 3: 0.253; 4: 0.0222

# batch size: 5; output EC50 per entry
1. C[C@H]1C[C@H](C)N1C(=O)[C@@H]1C=C2c3cccc4[nH]cc(c34)C[C@H]2N(CCCF)C1
2. CCCN1C[C@H](C(=O)N[C@H](C)CC)C=C2c3cccc4[nH]cc(c34)C[C@H]21
3. CCCN1C[C@H](C(=O)N[C@H](C)CC)C=C2c3cccc4[nH]c(Br)c(c34)C[C@H]21
4. CCN(CC)C(=O)[C@@H]1C=C2c3cccc4[nH]cc(c34)C[C@H]2N(CCF)C1
5. CCCN1C[C@H](C(=O)N2[C@@H](C)C[C@@H]2C)C=C2c3cccc4[nH]c(Br)c(c34)C[C@H]21

1: 0.431; 2: 0.062; 3: 0.788; 4: 0.137; 5: 1.44
